Values were extracted from patent US10508109B2.

Molecular target: SUV39H2 (Homo sapiens (Human))
Sequence (Q9H5I1 whole entry): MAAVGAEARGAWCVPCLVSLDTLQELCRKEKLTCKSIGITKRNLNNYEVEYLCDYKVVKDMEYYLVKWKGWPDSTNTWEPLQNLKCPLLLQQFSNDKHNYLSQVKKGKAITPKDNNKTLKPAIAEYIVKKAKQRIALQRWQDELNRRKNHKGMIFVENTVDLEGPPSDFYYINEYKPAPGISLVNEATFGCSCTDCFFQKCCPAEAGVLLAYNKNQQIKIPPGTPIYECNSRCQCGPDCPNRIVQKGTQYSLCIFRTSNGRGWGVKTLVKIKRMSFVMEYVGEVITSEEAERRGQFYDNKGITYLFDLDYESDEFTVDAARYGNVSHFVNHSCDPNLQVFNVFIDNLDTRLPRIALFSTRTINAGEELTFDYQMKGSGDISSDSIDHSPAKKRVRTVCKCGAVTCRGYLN
Details: read-out: IC50 (μM) Suv 39H2 assay; enzyme assay
measurement-name: IC50

{"columns": ["compound", "recorded-result"],
 "data": [
  ["COc1cc(OC)c(-c2cn3ccc(N4CCC(CCN(C)C)CC4)cc3n2)cc1Cl [Example 94]", "0.00887 µM"],
  ["COc1cc(OC)c(-c2cn3ccc(N4CCNCC4)cc3n2)cc1Cl [Example 17]", "0.0195 µM"],
  ["COc1cc(Cl)c(Cl)cc1-c1cn2ccc(N3CCCC3)cc2n1 [Example 233]", "0.085 µM"],
  ["COc1cc(OC)c(-c2cn3ccc(N4CCN(C(=O)C5CC5)CC4)cc3n2)cc1Cl [Example 238]", "0.00416 µM"],
  ["COc1cc(OC)c(-c2cn3cc(NCCN)c(N4CCN(S(=O)(=O)C5CC5)CC4)cc3n2)cc1Cl [Example 225]", "0.0022 µM"],
  ["COc1cc(OCSC)c(-c2cn3ccc(N4CCN(S(=O)(=O)C5CC5)CC4)cc3n2)cc1Cl [Example 255]", "0.00672 µM"],
  ["CCCCCNC1CCN(c2ccn3cc(-c4cc(Cl)c(OC)cc4OCCCN(C)C)nc3c2)CC1 [Example 165]", "0.0593 µM"]
]}
